Target: Sialidase (Clostridium perfringens, UniProt P10481)
Sequence (P10481 whole entry): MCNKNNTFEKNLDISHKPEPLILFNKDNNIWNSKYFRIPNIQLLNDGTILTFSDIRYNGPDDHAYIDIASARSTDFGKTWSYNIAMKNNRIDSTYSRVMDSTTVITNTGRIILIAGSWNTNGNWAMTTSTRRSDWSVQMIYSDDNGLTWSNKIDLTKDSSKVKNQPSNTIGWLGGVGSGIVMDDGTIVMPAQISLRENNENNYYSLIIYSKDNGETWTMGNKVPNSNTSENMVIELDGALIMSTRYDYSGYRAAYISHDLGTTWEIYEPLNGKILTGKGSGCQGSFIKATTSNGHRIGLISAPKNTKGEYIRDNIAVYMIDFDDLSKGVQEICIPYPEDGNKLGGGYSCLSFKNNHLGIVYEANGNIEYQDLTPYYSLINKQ
pKi: −log10 of the molar value.
Use fulfilled when the recorded pKi is no lower than 5; use not fulfilled when it is lower.

[
  {
    "Compound": "COc1cc(-c2coc3c(CC=C(C)C)c(O)c(CC=C(C)C)c(O)c3c2=O)ccc1O [FLEMINGSIN]",
    "Target": "Sialidase (Clostridium perfringens, UniProt P10481)",
    "Label Class": "fulfilled"
  },
  {
    "Compound": "C=CC(C)(C)C1=Cc2c(c(CC=C(C)C)c3occ(-c4ccc(O)c(O)c4)c(=O)c3c2O)OC1(C)C",
    "Target": "Sialidase (Clostridium perfringens, UniProt P10481)",
    "Label Class": "fulfilled"
  },
  {
    "Compound": "CC(C)=CCc1c(O)c(CC=C(C)C)c2occ(-c3ccc(O)cc3)c(=O)c2c1O",
    "Target": "Sialidase (Clostridium perfringens, UniProt P10481)",
    "Label Class": "fulfilled"
  },
  {
    "Compound": "CC(C)=CCc1c(-c2coc3cc(O)cc(O)c3c2=O)cc2c(c1O)OC(C)(C)C=C2",
    "Target": "Sialidase (Clostridium perfringens, UniProt P10481)",
    "Label Class": "not fulfilled"
  },
  {
    "Compound": "CC(C)=CCc1c2c(c3occ(-c4ccc(O)cc4)c(=O)c3c1O)C=CC(C)(C)O2 [OSAJIN]",
    "Target": "Sialidase (Clostridium perfringens, UniProt P10481)",
    "Label Class": "fulfilled"
  }
]

---

Parameter Ki, tested on Sialidase (Clostridium perfringens), listed per item.
Metric Name: Ki (µM)

[
  {
    "Smiles String": "C=CC(C)(C)C1=Cc2c(c(CC=C(C)C)c3occ(-c4ccc(O)cc4)c(=O)c3c2O)OC1(C)C",
    "Measurement Unit": "µM",
    "Recorded Number": 7.27
  },
  {
    "Smiles String": "CC(C)=CCc1c2c(c(O)c3c(=O)c(-c4ccc(O)c(O)c4)coc13)C=CC(C)(C)O2",
    "Measurement Unit": "µM",
    "Recorded Number": 0.13
  },
  {
    "Smiles String": "CC(C)=CCc1c(O)c(CC=C(C)C)c2occ(-c3ccc(O)c(O)c3)c(=O)c2c1O",
    "Measurement Unit": "µM",
    "Recorded Number": 1.02
  },
  {
    "Smiles String": "CC(C)=CCc1cc(-c2coc3cc(O)cc(O)c3c2=O)c(CC=C(C)C)c(O)c1O",
    "Measurement Unit": "µM",
    "Recorded Number": 7.86
  }
]
